Test system: human red blood cells (hRBC)
Test: Hemolysis of human red blood cells
Type: cell-based
Conditions: red cells of human, 1 h, 100
Where a SMILES comes first, the peptide text is derived from it. [ ]: non-standard residue; d: D form. Tic(7-OH) = O=C(O)[C@@H]1Cc2ccc(O)cc2CN1; Cha = N[C@@H](CC1CCCCC1)C(=O)O; Tle = CC(C)(C)[C@H](N)C(=O)O; dDab = NCC[C@@H](N)C(=O)O; hSer = N[C@@H](CCO)C(=O)O; Orn = NCCC[C@H](N)C(=O)O; Dab = NCC[C@H](N)C(=O)O; Dap = NC[C@H](N)C(=O)O
quantity measured: Hemolysis at 100 μg/ml (%)
// return numeric value only (unit: %, not printed)

// solved cases for Hemolysis at 100 μg/ml follow
Recorded Hemolysis at 100 μg/ml for CC(C)C[C@@H]1NC(=O)[C@@H]2CCCN2C(=O)[C@H]2CCCN2C(=O)[C@H](CO)NC(=O)[C@H]([C@@H](C)O)NC(=O)[C@H](C(C)(C)C)NC(=O)[C@H](CCN)NC(=O)[C@H](Cc2c[nH]c3ccccc23)NC(=O)[C@H](CCN)NC(=O)[C@@H](CCN)NC(=O)[C@H](CCCN)NC(=O)[C@H](CCN)NC(=O)[C@H](Cc2ccc(O)cc2)NC(=O)[C@H](CCN)NC1=O [compound 148] (cyclo(L[Dab]Y[Dab][Orn][dDab][Dab]W[Dab][Tle]TS[dP]P)) , please?
1

Look up Hemolysis at 100 μg/ml: C[C@@H]1NC(=O)[C@H](C(C)(C)C)NC(=O)[C@H](CCN)NC(=O)[C@H](Cc2c[nH]c3ccccc23)NC(=O)[C@H](CCN)NC(=O)[C@@H](CCN)NC(=O)[C@H](CCCN)NC(=O)[C@H](CCN)NC(=O)[C@H](CC2CCCCC2)NC(=O)[C@H](CN)NC(=O)[C@H](Cc2c[nH]c3ccccc23)NC(=O)[C@@H]2Cc3ccc(O)cc3CN2C(=O)[C@H]2CCCN2C(=O)[C@H](CO)NC1=O [compound 61] (cyclo(AS[dP][Tic(7-OH)]W[Dap][Cha][Dab][Orn][dDab][Dab]W[Dab][Tle]))
2

Endpoint output: Hemolysis at 100 μg/ml of CC(C)C[C@@H]1NC(=O)[C@@H]2CCCN2C(=O)[C@H]2CCCN2C(=O)[C@H](CO)NC(=O)[C@H](C)NC(=O)[C@H](C(C)(C)C)NC(=O)[C@H](CCCNC(=N)N)NC(=O)[C@H](Cc2c[nH]c3ccccc23)NC(=O)[C@H](CCN)NC(=O)[C@@H](CCN)NC(=O)[C@H](CCCN)NC(=O)[C@H](CCN)NC(=O)[C@H](Cc2ccc(O)cc2)NC(=O)[C@H](CO)NC1=O [compound 97] (cyclo(LSY[Dab][Orn][dDab][Dab]WR[Tle]AS[dP]P)) . Value?
1

---
Can you share its Hemolysis at 100 μg/ml? I mean this compound: CC(C)C[C@@H]1NC(=O)[C@@H]2CCCN2C(=O)[C@H]2CCCN2C(=O)[C@H](CN)NC(=O)[C@H](C)NC(=O)[C@H](C(C)(C)C)NC(=O)[C@H](CCO)NC(=O)[C@H](Cc2c[nH]c3ccccc23)NC(=O)[C@H](CCN)NC(=O)[C@@H](CCN)NC(=O)[C@H](CCCN)NC(=O)[C@H](CCN)NC(=O)[C@H](Cc2ccc(O)cc2)NC(=O)[C@H](CO)NC1=O [compound 42] (cyclo(LSY[Dab][Orn][dDab][Dab]W[hSer][Tle]A[Dap][dP]P))
1

Requested read-out: Hemolysis at 100 μg/ml. Entry: CC(C)C[C@@H]1NC(=O)[C@@H]2CCCN2C(=O)[C@H]2CCCN2C(=O)[C@H](CO)NC(=O)[C@H](C)NC(=O)[C@H](C(C)(C)C)NC(=O)[C@H](CCN)NC(=O)[C@H](Cc2c[nH]c3ccccc23)NC(=O)[C@@H](CCN)NC(=O)[C@@H](CCN)NC(=O)[C@H](CCCN)NC(=O)[C@H](CCN)NC(=O)[C@H](Cc2ccc(O)cc2)NC(=O)[C@H](CO)NC1=O [compound 155] (cyclo(LSY[Dab][Orn][dDab][dDab]W[Dab][Tle]AS[dP]P))
0

###

As shown below, each of these molecules has a reported Hemolysis at 100 μg/ml value.
System: human red blood cells (hRBC)
Test: Hemolysis of human red blood cells
Type: cell-based
Conditions: red cells of human, 1 h, 100
*1 amine or outer side, *2 acyl side, *3 side chain or, on linkers, in order; H or OH if unused. Where a SMILES comes first, the peptide text is derived from it. Side-chain parts run from the residue outwards. [ ]: non-standard residue; d: D form. The star is where a group is joined. Phe(4-CF3) = N[C@@H](Cc1ccc(C(F)(F)F)cc1)C(=O)O; cisHyp = O=C(O)[C@@H]1C[C@H](O)CN1; Cha = N[C@@H](CC1CCCCC1)C(=O)O; Tle = CC(C)(C)[C@H](N)C(=O)O; dDab = NCC[C@@H](N)C(=O)O; Orn = NCCC[C@H](N)C(=O)O; Dab = NCC[C@H](N)C(=O)O; Nva = CCC[C@H](N)C(=O)O; Dap = NC[C@H](N)C(=O)O; X4 = CCCCOc1ccc(N*)cc1; CO = O=C([*:1])[*:2]; Bn = c1ccc(C*)cc1; NHiPr = CC(C)N*
Numbers only here, please. The scale is %.

Give recorded Hemolysis at 100 μg/ml with human red blood cells (hRBC) for the following molecule: CC(C)C[C@@H]1NC(=O)[C@@H]2CCCN2C(=O)[C@H]2CCCN2C(=O)[C@H]([C@@H](C)O)NC(=O)[C@H](CO)NC(=O)[C@H](C(C)(C)C)NC(=O)[C@H](CCN)NC(=O)[C@H](Cc2c[nH]c3ccccc23)NC(=O)[C@H](CCN)NC(=O)[C@@H](CCN)NC(=O)[C@H](CCCN)NC(=O)[C@H](CCN)NC(=O)[C@H](Cc2ccc(O)cc2)NC(=O)[C@H](C)NC1=O [compound 131] (cyclo(LAY[Dab][Orn][dDab][Dab]W[Dab][Tle]ST[dP]P))
0.1

More entries:
Look up Hemolysis at 100 μg/ml with human red blood cells (hRBC) for this molecule: CCCCOc1ccc(NC(=O)NC[C@@H]2NC(=O)[C@H](CC(C)C)NC(=O)[C@@H]3CCCN3C(=O)[C@H]3CCCN3C(=O)[C@H](CO)NC(=O)[C@H](C)NC(=O)[C@H](C(C)(C)C)NC(=O)[C@H](CCN)NC(=O)[C@H](Cc3c[nH]c4ccccc34)NC(=O)[C@H](CCN)NC(=O)[C@@H](CCN)NC(=O)[C@H](CCCN)NC(=O)[C@H](CCN)NC(=O)[C@H](CC3CCCCC3)NC2=O)cc1 [compound 41] (cyclo(L[Dap]([CO-X4])[Cha][Dab][Orn][dDab][Dab]W[Dab][Tle]AS[dP]P))
7

Record lookup: for human red blood cells (hRBC), what Hemolysis at 100 μg/ml belongs to CC(C)NC(=O)NC[C@@H]1NC(=O)[C@H](C)NC(=O)[C@H](C(C)(C)C)NC(=O)[C@H](CCN)NC(=O)[C@H](Cc2c[nH]c3ccccc23)NC(=O)[C@H](CCN)NC(=O)[C@@H](CCN)NC(=O)[C@H](CCCN)NC(=O)[C@H](CCN)NC(=O)[C@H](CC2CCCCC2)NC(=O)[C@H](C)NC(=O)[C@H](Cc2c[nH]c3ccccc23)NC(=O)[C@@H]2CCCN2C(=O)[C@H]2CCCN2C1=O [compound 20] (cyclo(WA[Cha][Dab][Orn][dDab][Dab]W[Dab][Tle]A[Dap]([CO-NHiPr])[dP]P)) ?
4

# value lookup — system human red blood cells (hRBC), readout Hemolysis at 100 μg/ml, item CCC[C@@H]1NC(=O)[C@@H]2CCCN2C(=O)[C@H]2CCCN2C(=O)[C@H](CO)NC(=O)[C@H](C)NC(=O)[C@H](C(C)(C)C)NC(=O)[C@H](CCN)NC(=O)[C@H](Cc2c[nH]c3ccccc23)NC(=O)[C@H](CCN)NC(=O)[C@@H](CCN)NC(=O)[C@H](CCCN)NC(=O)[C@H](CCN)NC(=O)[C@H](Cc2ccc(C(F)(F)F)cc2)NC(=O)[C@H](CO)NC1=O [compound 106] (cyclo([Nva]S[Phe(4-CF3)][Dab][Orn][dDab][Dab]W[Dab][Tle]AS[dP]P))
2

Given the entry C[C@@H]1NC(=O)[C@H](Cc2c[nH]c3ccccc23)NC(=O)[C@@H]2C[C@H](OCc3ccccc3)CN2C(=O)[C@H]2CCCN2C(=O)[C@H](CO)NC(=O)[C@H](C)NC(=O)[C@H](C(C)(C)C)NC(=O)[C@H](CCN)NC(=O)[C@H](Cc2c[nH]c3ccccc23)NC(=O)[C@H](CCN)NC(=O)[C@H](CCN)NC(=O)[C@H](CCCN)NC(=O)[C@H](CCN)NC(=O)[C@H](CC2CCCCC2)NC1=O [compound 64] (cyclo(WA[Cha][Dab][Orn][Dab][Dab]W[Dab][Tle]AS[dP][cisHyp](Bn))) , what Hemolysis at 100 μg/ml was observed with human red blood cells (hRBC)?
3
